assaySystem: Arginase (Homo sapiens, UniProt P05089)
Construct: Arginase protein was recombinantly expressed in Escherichia coli
Sequence (P05089 whole entry): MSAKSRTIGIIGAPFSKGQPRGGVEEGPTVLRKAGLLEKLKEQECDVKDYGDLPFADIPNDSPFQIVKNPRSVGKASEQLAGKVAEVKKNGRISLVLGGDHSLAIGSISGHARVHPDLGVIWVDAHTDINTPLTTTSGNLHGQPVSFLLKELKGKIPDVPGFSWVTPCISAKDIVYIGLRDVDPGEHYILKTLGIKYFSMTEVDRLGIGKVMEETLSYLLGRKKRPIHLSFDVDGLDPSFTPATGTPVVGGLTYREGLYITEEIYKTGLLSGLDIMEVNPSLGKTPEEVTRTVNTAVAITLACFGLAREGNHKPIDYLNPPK
experimentSummary: Arginase Thioornithine Generating Assay (TOGA)
Assay type: biochemical
measurementParameters: Top Dose 10000 nM; read-out: Percent Inhibition at Top Dose
readout: inhibition at 10 µM (%)

molecule: CN[C@@]1(C(=O)O)C[C@H]2CNC[C@H]2[C@@H]1CCCB(O)O [Example 22]
inhibition at 10 µM [%]: 93.9

molecule: CN[C@@H]1C[C@@H]2C[C@@](N)(C(=O)O)[C@@H](CCCB(O)O)[C@@H]2C1 [Example 51a]
inhibition at 10 µM [%]: 99.6

molecule: NC1(C(=O)O)CC2(CCNC2)OC1CCCB(O)O (stereo not drawn) [Example 41]
inhibition at 10 µM [%]: 97.7

molecule: NC1(C(=O)O)C(CCCB(O)O)CC2NCCCC21 (stereo not drawn) [Example 40]
inhibition at 10 µM [%]: 91.4

molecule: NC1(C(=O)O)C(CCCB(O)O)C[C@H]2C[C@H]21 (relative stereo) [Example 36a]
inhibition at 10 µM [%]: 93

molecule: C[C@H](N)C(=O)N1C[C@@H]2C[C@@](N)(C(=O)O)[C@@H](CCCB(O)O)[C@@H]2C1 [Example 4]
inhibition at 10 µM [%]: 97.4
